// provenance: the EternaBench riboswitch data

tested on: MS2 coat protein; test: apparent Kd, MS2 coat protein; higher = weaker binding; RNA-MaP array; FMN 200 µM where present; conditions: designed as: OFF switch for flavin mononucleotide; no ligand
Would you mind telling me the reported apparent Kd of each entry?
Give bare numbers, in µM.

GCGCGAAGGUAGGAUAUCCAGGGAUCUUCCCGCGGAGAAGGACCCACAUGAGGAUCACCCAUGUGGUGAUCCUG : 0.0161
UGUUGUUCAGGAUAUGAUGUAUAAUACAUGAGGAUCACCCAUGUGGGUCCUGAUUUGGCGUCAGAAGGGAAUGUUG : 0.0883
CCAUCGGAAGGAUAUACAUGAGGAUCACCCAUGUGCGAGCCCGCGCUCUCGGGAAGAUGUAGAAGGUUCAAGAA : 0.0359

List reported apparent Kd for each of these sequences:
1. GGGUGACUAGGAUAUACAUGAGGAUCACCCAUGUGUACUGGACCUGGGUAGUCUUGGAGUAGAAGGAGUAGCUG
2. UCCUCUGUAUGAGGAUAUCCGAAUACGUGAGGCGCUGCCGGCUCAUCAUCAGGAGAAGGCAUACAUGAGGAUCACCCAUGUCGA
3. UUUUAACAUGAGGAUCACCCAUGUGAGGAUAUCGUAAUUUUUAUUAAUAUUAAUAAAACGAGAAGGCACAUUUU

Response given:
1. 0.0853
2. 0.141
3. 0.0966

----------
Would you mind telling me the reported apparent Kd of each entry?
system: MS2 coat protein; test: apparent Kd, MS2 coat protein; higher = weaker binding; RNA-MaP array; FMN 200 µM where present; conditions: designed as: OFF switch for flavin mononucleotide; no ligand
Give bare numbers, in nM.

List reported apparent Kd for each of these sequences:
1. UUCAUGUUAGGAUAUUCCGCCACAGAGAAAGUCUGUGGAAUGAAGAAGGGACAUGAGGAUCACCCAUGUUCCAA
2. CCAUUUCAGUAAGGAUAUAUAAACAUGACGAUACAUGAGGAUCACCCAUGUGUAGAAGGUACUAAUACAUAUAAUGCAAUGUUC
3. ACAUGAGGAUCACCCAUGUGAGGAUCUCCCAUGUUAUAUUUCAGAAGGCUCGUGUGUUUGAUGAGAGAGGAUAUGGAAUAUACG
4. GUAUGACAAAGUCAUACCGCUUUGACAUGAGGAUCACCCAUGUAGGAUAUAUUAAUCAAAGAUUAAUAGAAGGACAUGUUUCUU
5. UAUGUGUCAGGAUAUUGUUAGUUUAGUUGUUUGUAUUAGUUCGAGAAGGGACAUGAGGAUCACCCAUGUUGUUU

Response given:
1. 15.1
2. 16.6
3. 73.7
4. 43.7
5. 30.9

List reported apparent Kd for each of these sequences:
1. CUGAGCUGAGGAUAUACAUGAGGAUCACCCAUGUGGGCCUGCGAGGUUACUUGCACAUGUAGAAGGCAGUUCGG
2. AAUAUAAUAAGAGCUGGAAAUAAAACAUGAGGAUCACCCAUGUAGGAUAUCAGCACGAUAAGUGCUGAGAAGGACAACCAGCUC
3. CGCUCUAUAUAUUUGGCAAGAAUCAGAAGGCGUUACAUGAGGAUCACCCAUGUUUUGAAUAGUAACGAGGAUAUGAUAUGAGCG
4. AAUAUGAGCUGGUUUAAAACCUAAACAUGAGGAUCACCCAUGUAGGAUAUCAGCACGAUAAGUGCUGAGAAGGACAUCCAGCUC
5. AAUUCGUCAGGAUAUGCAUGUAAUUGUUACAUUUCGCCGUUGCAGAAGGGACAUGAGGAUCACCCAUGUAAGUC
6. UAUAUAUAGUAAGGAUAUGUAUUAAUUGUAUAAACAGAAGGUACUGACAUGAGGAUCACCCAUGUUUUAGUGUGGGCAUGUAGA

Response given:
1. 136
2. 14
3. 21.6
4. 15
5. 32.8
6. 91.3

List reported apparent Kd for each of these sequences:
1. UUCUACAAGUAAGGAUAUCGGCUAUAGUUAACUCGAGAAGGUACAUGAGGAUCACCCAUGUAGUAGAUACAGACUACUGGCUUG
2. CUUUUGUGAGGAUAUCAGUAGUUAAAUAAUAAAAUUACUACUGAGAAGGCACAUGAGGAUCACCCAUGUUCCUC
3. CGGCACGCAGGAUAUGCCUUUGAGUACAUGAGGAUCACCCAUGUCUUCACCCUCAUUAGGGCAGAAGGGCGAUAUC
4. GCAGCUUGGCAGAAGGCCUAGGUGGCGGACCUAGGAGGAUAUGCUACAUGAGGAUCACCCAUGUGGGUGGGAGAAUCCUAGGAG
5. CUGAUGUCAGGAUAUCAGAAAAGGUGCAAGGACGCACCAAAUGAGAAGGGACAUGAGGAUCACCCAUGUAAAAC
6. GUAUGGGUAGAAGGACAUGAGGAUCACCCAUGUUGUGUGUCUAAGGAUAUUAGAGAAGAUUGACGUAAGAAGGUAGAUGUGUGG
7. CGCUCAAUUACUUUGAAUAGAAUCAGAAGGCGUUACAUGAGGAUCACCCAUGUUAUGAUGUGUAACGAGGAUAUGAAUUGAGCG

Response given:
10.9
36.4
24.4
133
25
94.2
38.2

Challenge: apparent Kd lookup needed for CAGGUAGCUAGAGGAUAUACACGUCUGGAUAAACCAGACGAAUAAACCACAUGAGGAUCACCCAUGUAGAAGGCUAGCUGCCUG , thanks.
Response given: 15.2
